- Target of assay: hTRPM8 (Homo sapiens, UniProt Q7Z2W7)
- Construct: expressed in transfected cells; host or cells: CHO-KJ cells [sic]
- Sequence (Q7Z2W7 whole entry): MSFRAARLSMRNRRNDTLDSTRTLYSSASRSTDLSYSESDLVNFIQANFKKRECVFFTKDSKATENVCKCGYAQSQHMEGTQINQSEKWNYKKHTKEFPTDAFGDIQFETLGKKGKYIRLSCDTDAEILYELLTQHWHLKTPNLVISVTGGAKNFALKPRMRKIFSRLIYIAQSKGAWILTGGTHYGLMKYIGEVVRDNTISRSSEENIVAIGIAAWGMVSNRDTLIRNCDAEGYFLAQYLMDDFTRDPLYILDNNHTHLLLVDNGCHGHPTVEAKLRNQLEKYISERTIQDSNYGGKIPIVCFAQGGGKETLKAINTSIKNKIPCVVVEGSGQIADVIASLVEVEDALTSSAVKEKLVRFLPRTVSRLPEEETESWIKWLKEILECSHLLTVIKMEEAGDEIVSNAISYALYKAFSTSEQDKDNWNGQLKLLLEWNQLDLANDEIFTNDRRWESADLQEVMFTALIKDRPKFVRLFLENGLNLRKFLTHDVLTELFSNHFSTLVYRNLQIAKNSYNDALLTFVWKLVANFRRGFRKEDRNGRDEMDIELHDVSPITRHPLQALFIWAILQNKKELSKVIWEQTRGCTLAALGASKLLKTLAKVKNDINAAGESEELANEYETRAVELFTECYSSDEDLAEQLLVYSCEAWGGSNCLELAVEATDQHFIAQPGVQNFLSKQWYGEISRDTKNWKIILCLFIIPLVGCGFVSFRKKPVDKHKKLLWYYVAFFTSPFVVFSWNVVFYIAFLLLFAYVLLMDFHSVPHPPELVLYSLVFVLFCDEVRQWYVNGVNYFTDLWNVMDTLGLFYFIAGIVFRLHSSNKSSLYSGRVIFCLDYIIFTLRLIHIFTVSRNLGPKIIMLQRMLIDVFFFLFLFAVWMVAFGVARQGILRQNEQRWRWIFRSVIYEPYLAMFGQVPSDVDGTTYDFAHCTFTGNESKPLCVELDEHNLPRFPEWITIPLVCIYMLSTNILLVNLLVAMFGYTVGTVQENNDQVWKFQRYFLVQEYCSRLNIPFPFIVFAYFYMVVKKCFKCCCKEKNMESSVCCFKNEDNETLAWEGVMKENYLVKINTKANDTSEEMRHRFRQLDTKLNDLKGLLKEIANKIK
- Protocol: Secondary in vitro screening on hTRPM8 at 5 μM versus WS-3
- Format: cell-based
- Measurement context: WS3 as reference compound
Readout name: activation at 5 µM (%)

1. CCC1OCC2(CO1)C[C@H](C)CC[C@H]2C(C)C (some centres unmarked)
2. CC(C)[C@@H]1CC[C@@H](C)CC12COC(C)(C)OC2
3. CC1(C)CCCC(CO)(CO)C1
4. CC(C)[C@@H]1CC[C@@H](C)CC12COC(C)(c1ccccc1)OC2 (some centres unmarked)
5. CCC(C)C1CCCCC12COC(C)OC2 (centres unmarked)
input: # order the compounds above by activation at 5 µM, highest value first As an answer, provide the labels arranged in the order called for.
output: 2, 4, 3, 1, 5
